# experimental-protocol: RPL19A-GFP modulators, yeast TOR pathway, confirmation, cell-based, S. cerevisiae, flow cytometry, cherry picks, mother/daughter gates (AID 2270)
# measurement-conditions: S. cerevisiae RPL19A-GFP strain, 3 h, measured here: daughter cell gate, at 10 µM, stronger effect = lower value, 100 = same GFP as DMSO wells
Recorded GFP response vs DMSO values for a group of compounds are listed next.
Dear colleague, please return just the value in %, with no unit written.

For orientation, consider the following solved cases.
>>> quantitative_result("COC(=O)c1cccc(-n2c(CCC(=O)O)ccc2-c2cccs2)c1")
98.9
>>> quantitative_result("COc1ccc(-c2noc(CCCC(=O)NCCc3ccccc3)n2)cc1OC")
97.3
>>> quantitative_result("CC1CN(c2nc3ccccn3c(=O)c2/C=C(\\C#N)C(=O)N2CCOCC2)CC(C)O1 (stereo not drawn)")
99.3
>>> quantitative_result("Cc1ccc(-n2ncc(C#N)c2/N=C/N(C)C)cc1")
101
>>> quantitative_result("O=[N+]([O-])c1ccc(SCCc2ccncc2)cc1")
97.4
>>> quantitative_result("COC(=O)c1ccc(/C=N/OCC(=O)NCCc2ccc(OC)c(OC)c2)cc1")
99

Request: Which GFP response vs DMSO value is on record for COc1ccccc1C1CC(c2c(-c3ccccc3)c3cc(Cl)ccc3[nH]c2=O)=NN1S(C)(=O)=O (stereo not drawn) ?
Result: 98.9

Request: Which GFP response vs DMSO value is on record for `CCc1c2ccccc2nn1-c1ccccc1C(=O)C(C)=O` ?
Result: 97.3

Request: Which GFP response vs DMSO value is on record for CCCCOC(=O)C1CCC[C@@H](C)N1 (stereo partly drawn) ?
Result: 102

Request: Which GFP response vs DMSO value is on record for `O=C(c1c(F)cccc1F)N1CCN(c2ccccc2F)CC1` ?
Result: 99.1

Request: Which GFP response vs DMSO value is on record for `COc1ccc(-c2nc(-c3ccccc3OC)no2)cc1OC` ?
Result: 98.8

Request: Which GFP response vs DMSO value is on record for `CCOc1ccccc1NC(=O)c1nc(S(=O)(=O)Cc2cccc(C)c2)ncc1Cl` ?
Result: 100

Request: Which GFP response vs DMSO value is on record for `CC1(C)CC(=O)C2=C(C1)OC1=C(C(=O)CC(C)(C)C1)C2c1ccc(O)cc1O` ?
Result: 105

Request: Which GFP response vs DMSO value is on record for CCCc1[nH]nc2c1C(c1ccc(O)cc1OCC)C(C#N)=C(N)O2 (stereo not drawn) ?
Result: 104

###

# experimental-protocol: RPL19A-GFP modulators, yeast TOR pathway, confirmation, cell-based, S. cerevisiae, flow cytometry, cherry picks, mother/daughter gates (AID 2270)
# measurement-conditions: S. cerevisiae RPL19A-GFP strain, 3 h, measured here: daughter cell gate, at 10 µM, stronger effect = lower value, 100 = same GFP as DMSO wells
measured-metric: GFP response vs DMSO (%)
Dear colleague, please return just the value in %, with no unit written.

For orientation, consider the following solved cases.
>>> quantitative_result("CCOC(=O)/C(=C\\c1cn(C)c2ccccc12)[N+](=O)[O-]")
93.4
>>> quantitative_result("Cc1cc(=O)n2c3c(sc2n1)C(=O)N(Cc1ccccc1)C3=O")
94.5
>>> quantitative_result("COCCNC(=O)c1ccc(Cl)c(Cl)c1")
95.6

Request: Which GFP response vs DMSO value is on record for `Cc1cc(/C=C2/SC(=S)N(c3cccc(Cl)c3)C2=O)c(C)n1-c1cccnc1` ?
Result: 106

Request: Which GFP response vs DMSO value is on record for O=C1Nc2ccccc2C(=O)C1(Cl)Cc1ccccc1 (centres undefined) ?
Result: 91.9

Request: Which GFP response vs DMSO value is on record for CCCc1[nH]nc2c1C(c1cc(OC)cc(OC)c1)C(C#N)=C(N)O2 (centres undefined) ?
Result: 99.8

Request: Which GFP response vs DMSO value is on record for `Cc1nc2ccccc2n2c(O)c(CC(=O)O)cc12` ?
Result: 98.5

Request: Which GFP response vs DMSO value is on record for `O=C(c1ccc2ccccc2c1)N1CCN(c2ccc(O)cc2)CC1` ?
Result: 100

Request: Which GFP response vs DMSO value is on record for `O=C1C=CC(=O)N1c1ccc(N2CCCCC2)cc1` ?
Result: 86.8

Request: Which GFP response vs DMSO value is on record for `Cc1ccc(C(=O)O/N=C(\N)Cc2cccs2)c(Cl)c1` ?
Result: 102

Request: Which GFP response vs DMSO value is on record for CCC(C)(C)n1nnnc1C(c1ccc(O)c(OC)c1)N1CCc2ccccc2C1 (centres undefined) ?
Result: 99.6

Request: Which GFP response vs DMSO value is on record for CC(Oc1ccc(Cl)cc1)C(=O)NNC(=S)NC(=O)c1ccco1 (centres undefined) ?
Result: 97.1

Request: Which GFP response vs DMSO value is on record for `Cc1ccc(-c2ccc(/C=N/NC(N)=S)o2)cc1` ?
Result: 95

Request: Which GFP response vs DMSO value is on record for `CC(C)CC[n+]1ccccc1/C=C/c1ccc(N(C)C)cc1` ?
Result: 94.9

Request: Which GFP response vs DMSO value is on record for `Cc1ccc(S(=O)(=O)N(Cc2ccc(F)cc2)Cc2ccco2)cc1` ?
Result: 96.7

Request: Which GFP response vs DMSO value is on record for `Cc1cccc(OCCCSc2nc3ccc(C)cc3[nH]2)c1` ?
Result: 89.2

Request: Which GFP response vs DMSO value is on record for `Cc1nn2c(N3CCN(C(=O)c4ccco4)CC3)cc(C(C)(C)C)nc2c1-c1ccccc1` ?
Result: 97.6

Request: Which GFP response vs DMSO value is on record for `O=C1ON=C(c2ccccc2)/C1=C/c1ccco1` ?
Result: 86.4

Request: Which GFP response vs DMSO value is on record for `CC(C)(C)NC(=O)CN(C(=O)CCC(=O)Nc1nccs1)c1ccc(F)cc1` ?
Result: 100

Request: Which GFP response vs DMSO value is on record for `CCOc1cc(/C=N/Nc2nc(C)cc(=O)[nH]2)ccc1O` ?
Result: 102

Request: Which GFP response vs DMSO value is on record for `Cc1ccc(C)c(Cn2ncc3ccccc32)c1` ?
Result: 98.1

Request: Which GFP response vs DMSO value is on record for `CCCCNC(=O)c1ccc2c(SCC(=O)O)c3c(nc2c1)CCCC3` ?
Result: 96.7

Request: Which GFP response vs DMSO value is on record for `O=S(=O)(c1ccc(Cl)cc1)c1snnc1-c1ccccc1` ?
Result: 92.2

Request: Which GFP response vs DMSO value is on record for `CCOc1ccc(-c2nc(-c3ccc(OC)cc3)no2)cc1OCC` ?
Result: 101
